Field: INHIBITION. Provide a value for each of the compounds that follow.
Tested on: Plasmodium berghei
Assay: Screen against P. berghei liver stage (PbLuc), transformed with Luciferase, at 10uM
Format: functional, HepG2
Conditions: tested at 10 uM
In all, about 69,000 compounds went through this assay and about 8,600 (12%) showed an effect of 50% or more. The full list was thinned out, with strong results kept by preference.
Returns: string containing the number followed by the unit.

Exercise: Kindly state the measured INHIBITION obtained for Cc1cc2ccccc2n1CC(=O)N[C@@H](C)C(=O)O with Plasmodium berghei.
Solution: 4.93%

Exercise: Kindly state the measured INHIBITION obtained for Cc1ccc(C(=O)N2CCc3nc4c(C)csc4c(=O)n3CC2)cn1 with Plasmodium berghei.
Solution: 57.5%

Exercise: Kindly state the measured INHIBITION obtained for CCN1CCCC(C)(C(=O)NCc2nncn2CCc2ccccc2)C1 (centres undefined) with Plasmodium berghei.
Solution: 57%

Exercise: Kindly state the measured INHIBITION obtained for CCn1cnnc1CNC(=O)N1CCN(CCc2ccccc2)CC1 with Plasmodium berghei.
Solution: 23.4%

Exercise: Kindly state the measured INHIBITION obtained for Cc1ccsc1C1CC(=O)Nc2c1cnn2C(C)C (centres undefined) with Plasmodium berghei.
Solution: 11.9%

Exercise: Kindly state the measured INHIBITION obtained for Cc1csc2c(=O)n3c(nc12)CCN(C(=O)c1cccnc1)CC3 with Plasmodium berghei.
Solution: 36.4%

Exercise: Kindly state the measured INHIBITION obtained for O=C(Nc1nnc(C(F)F)s1)NC(CCO)c1cccs1 (centres undefined) with Plasmodium berghei.
Solution: 13.8%

Exercise: Kindly state the measured INHIBITION obtained for COc1cc2c(cc1CNC(Cc1cccs1)c1nccs1)OCCO2 (centres undefined) with Plasmodium berghei.
Solution: 36.9%

Exercise: Kindly state the measured INHIBITION obtained for Cc1nc(C)n(CC2CCCN(CCC(=O)N3CCOCC3)C2)n1 (centres undefined) with Plasmodium berghei.
Solution: -2.19%

###

Field: INHIBITION. Provide a value for each of the compounds that follow.
System: Plasmodium berghei
Assay: Screen against P. berghei liver stage (PbLuc), transformed with Luciferase, at 10uM
Format: functional, HepG2
Settings: tested at 10 uM
The campaign covered roughly 69,000 compounds. About 8,600 (12%) showed an effect of 50% or more. This is one part of a sample in which strong results are shown more often than they occur.
# number only, unit % dropped from output

Exercise: Requested field: INHIBITION. Item: c1ccc(CN2CCOC3(CCCN(c4nccs4)C3)C2)cc1 (stereo unspecified)
Solution: 43.9

Exercise: Requested field: INHIBITION. Item: CC(=O)N1CCc2c(nc(-c3cccnc3)nc2N(C)CC(O)CO)C1 (stereo unspecified)
Solution: -31.4

Exercise: Requested field: INHIBITION. Item: O=C(c1ccc(Cl)cc1)N1CCn2c(nn(-c3ccncc3)c2=O)C1
Solution: 49.9

Exercise: Requested field: INHIBITION. Item: CN(C)c1ccccc1CN1CCC(N2CCCC2=O)CC1
Solution: 25.2

Exercise: Requested field: INHIBITION. Item: Fc1cccc(N2CCCC3(CN(Cc4ccncc4)CCO3)C2)c1 (stereo unspecified)
Solution: 81.3

Exercise: Requested field: INHIBITION. Item: CCc1nnc(NCc2cccc(OC)c2OC)o1
Solution: 50.2

Exercise: Requested field: INHIBITION. Item: Cc1ccc(C(C)C(=O)N2CCCN(Cc3cscn3)CC2)cc1 (stereo unspecified)
Solution: 15.2

Exercise: Requested field: INHIBITION. Item: Cc1nnc(N2CCCC3(CN(Cc4cccnc4)CCO3)C2)o1 (stereo unspecified)
Solution: 22.2

Exercise: Requested field: INHIBITION. Item: Cc1nc(-c2cccs2)ccc1C(=O)N1CCN(CC(C)O)CC1 (stereo unspecified)
Solution: 55.4

Exercise: Requested field: INHIBITION. Item: Cc1nnc(N2CCCC3(CN(Cc4nccs4)CCO3)C2)o1 (stereo unspecified)
Solution: 8.67

Exercise: Requested field: INHIBITION. Item: Cc1nc(-c2ccccc2)ccc1C(=O)N1CCN(CCO)CC1
Solution: 71.2

Exercise: Requested field: INHIBITION. Item: O=C(NCCCNC(=O)c1ccc(F)cc1F)c1cccc(O)c1
Solution: -2.61

Exercise: Requested field: INHIBITION. Item: Cc1nc2c(N3CCC(O)(Cn4ccnc4)CC3)ncnc2o1
Solution: 29.7

Exercise: Requested field: INHIBITION. Item: O=C(c1ccc(Cl)cc1)N1CCn2c(nn(-c3cccc(Cl)c3)c2=O)C1
Solution: 54

Exercise: Requested field: INHIBITION. Item: CN(C)Cc1cccc(-c2cccnc2C(=O)NCc2cn(C)cn2)c1
Solution: 51

Exercise: Requested field: INHIBITION. Item: COc1cccc(CNc2nnc(C(C)(C)C)o2)c1OC
Solution: 7.22

Exercise: Requested field: INHIBITION. Item: CC(O)CN(C)c1cc(C(F)(F)F)nc(-c2cccnc2)n1 (stereo unspecified)
Solution: 16.6

Exercise: Requested field: INHIBITION. Item: Cc1ccc(CC(=O)N2CCc3nnc(N(C)C)cc3C2)s1
Solution: 12.85

Exercise: Requested field: INHIBITION. Item: Fc1cccc(N2CCCC3(CN(Cc4nccs4)CCO3)C2)c1 (stereo unspecified)
Solution: 88.2

Exercise: Requested field: INHIBITION. Item: CC(C)(C#N)c1ccccc1CN1CCC(N2CCCC2=O)CC1
Solution: 57.7

Exercise: Requested field: INHIBITION. Item: Cc1nc2c(NC(CC(C)(C)C)c3cccnc3)ncnc2o1 (stereo unspecified)
Solution: 34.4
